# Experimental System: Galanin receptor type 2 (Homo sapiens) (UniProt O43603)
# Sequence (O43603 whole entry, looked up): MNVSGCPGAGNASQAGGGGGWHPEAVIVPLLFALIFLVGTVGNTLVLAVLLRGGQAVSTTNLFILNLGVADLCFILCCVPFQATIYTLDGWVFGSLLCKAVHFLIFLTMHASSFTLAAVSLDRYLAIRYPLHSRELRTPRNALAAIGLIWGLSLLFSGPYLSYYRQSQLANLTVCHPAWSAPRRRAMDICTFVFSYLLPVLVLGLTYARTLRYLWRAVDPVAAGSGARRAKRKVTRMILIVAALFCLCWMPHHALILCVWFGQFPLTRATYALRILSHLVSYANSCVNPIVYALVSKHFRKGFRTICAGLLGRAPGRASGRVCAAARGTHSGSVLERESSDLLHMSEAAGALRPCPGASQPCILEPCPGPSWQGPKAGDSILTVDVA
# Assay Info: GALR2 receptor agonists, primary screen, cell-based (AID 803);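 further: 0% = vehicle buffer wells and 100% = reference agonist at full effect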
# Particulars: GALR2-expressing cells, agonist activation read-out; at 5.6 µM; hits give high values
The campaign covered roughly 140,000 compounds. About 680 (0.49%) were called active. What follows is part of a selection rich in actives, with near analogues and random picks from the rest.
Measure Name: activation

Request: Which activation reading was recorded for the molecule CN(c1ccccc1)c1nc(N)c([N+](=O)[O-])c(NCc2ccco2)n1 ?
Result: 1.08% (inactive)

Request: Which activation reading was recorded for the molecule O=C(Cc1cccs1)Nc1nnc(SCc2ccc(F)cc2)s1 ?
Result: 1.11% (inactive)

Request: Which activation reading was recorded for the molecule CCOC(=O)c1oc2c(CN3CCN(C)CC3)c(O)ccc2c(=O)c1-c1ccc(Br)cc1 ?
Result: -1.12% (inactive)

Request: Which activation reading was recorded for the molecule CCc1ccc(Oc2coc3cc(OC(=O)c4cc5ccccc5oc4=O)ccc3c2=O)cc1 ?
Result: 0.76% (inactive)

Request: Which activation reading was recorded for the molecule CSc1ccc(/C=C/C(=O)NC23CC4CC(CC(C4)C2)C3)cc1 ?
Result: -1.84% (inactive)
